Molecular target: potassium hERG channel (Homo sapiens)
Construct: host or cells: HEK-293
Sequence (Q12809 whole entry): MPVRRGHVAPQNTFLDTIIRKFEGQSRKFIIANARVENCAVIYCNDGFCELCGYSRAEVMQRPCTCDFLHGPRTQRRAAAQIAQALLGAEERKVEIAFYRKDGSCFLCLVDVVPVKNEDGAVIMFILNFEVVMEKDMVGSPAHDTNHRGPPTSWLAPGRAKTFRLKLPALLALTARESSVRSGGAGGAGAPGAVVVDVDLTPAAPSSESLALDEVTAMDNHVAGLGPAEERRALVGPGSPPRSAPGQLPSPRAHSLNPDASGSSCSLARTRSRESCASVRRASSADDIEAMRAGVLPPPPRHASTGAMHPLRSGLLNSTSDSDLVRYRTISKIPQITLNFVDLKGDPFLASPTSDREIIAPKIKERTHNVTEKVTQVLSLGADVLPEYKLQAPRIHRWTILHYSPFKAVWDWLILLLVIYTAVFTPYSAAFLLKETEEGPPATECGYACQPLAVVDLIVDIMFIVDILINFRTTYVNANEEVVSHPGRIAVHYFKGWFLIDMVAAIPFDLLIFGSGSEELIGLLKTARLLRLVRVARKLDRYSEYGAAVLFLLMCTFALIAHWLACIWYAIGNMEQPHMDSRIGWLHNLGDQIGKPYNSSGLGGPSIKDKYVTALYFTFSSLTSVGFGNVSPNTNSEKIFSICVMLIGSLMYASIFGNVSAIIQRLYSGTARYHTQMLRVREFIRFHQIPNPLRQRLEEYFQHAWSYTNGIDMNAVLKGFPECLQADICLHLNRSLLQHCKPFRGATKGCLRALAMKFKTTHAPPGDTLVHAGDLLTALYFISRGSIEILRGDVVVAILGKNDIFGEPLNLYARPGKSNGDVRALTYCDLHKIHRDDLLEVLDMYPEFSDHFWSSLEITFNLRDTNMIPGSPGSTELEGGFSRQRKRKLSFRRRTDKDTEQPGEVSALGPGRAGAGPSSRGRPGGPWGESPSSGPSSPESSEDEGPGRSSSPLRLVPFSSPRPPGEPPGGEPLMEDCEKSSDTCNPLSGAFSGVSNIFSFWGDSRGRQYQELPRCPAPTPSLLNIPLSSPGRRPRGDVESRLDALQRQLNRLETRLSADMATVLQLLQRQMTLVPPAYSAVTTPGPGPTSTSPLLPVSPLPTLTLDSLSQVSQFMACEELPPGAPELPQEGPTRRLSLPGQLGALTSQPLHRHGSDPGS
Test: Radioligand binding assay for K+ channel hERG ([3H]-dofetilide, HEK-293 cells)
Conditions: HEK-293 cells; [3H]-dofetilide
property.name: IC50

[
  {
    "compound": "Cl.O=C1CCCN1CCCCN1CCN(c2ccccc2Cl)CC1 [S-75]",
    "target.desc": "potassium hERG channel (Homo sapiens)",
    "value.observed": "29.3 µM"
  }
]
